assayed-system: human kinase Mps-1 (Homo sapiens, UniProt P33981)
Construct: N-terminally GST-tagged human full length recombinant Mps-1 kinase
run-description: Mps-1 kinase assay (HTRF)
details: lowATP; mean; read-out: Mps1 lowATP mean IC50
pIC50: −log10 of the molar value.
A collection of compounds and their measured pIC50

>  <smi>
O=C(NC1CC1)c1ccc(-c2cnc3c(NCc4ccncc4)nc4cc(F)c(F)cc4n23)cc1Cl

>  <pIC50>
5.77

$$$$
>  <smi>
CNC(=O)Nc1ccc(-c2cnc3c(NCc4cccs4)nc4cc(C)c(C)cc4n23)cc1

>  <pIC50>
6.33

$$$$
>  <smi>
O=C(NC1CC1)c1ccc(-c2cnc3c(NCCc4ccc(F)cc4)nc4ccccc4n23)cc1

>  <pIC50>
6.27

$$$$
>  <smi>
NC(=O)CCNc1nc2ccc(F)cc2n2c(-c3ccc(C(=O)NC4CC4)cc3)cnc12

>  <pIC50>
6.42

$$$$
>  <smi>
COc1ccc(-c2cnc3c(NCC(C)C)nc4ccccc4n23)cc1OC

>  <pIC50>
4.87

$$$$
>  <smi>
CC(C)CNc1nc2ccccc2n2c(-c3cccnc3F)cnc12

>  <pIC50>
5.01

$$$$
>  <smi>
NC(=O)CCNc1nc2cc(F)c(F)cc2n2c(-c3ccc(C(=O)NC4CC4)c(Cl)c3)cnc12

>  <pIC50>
4.95

$$$$
>  <smi>
O=C(NC1CC1)c1ccc(-c2cnc3c(NCCCO)nc4cc(F)c(F)cc4n23)cc1

>  <pIC50>
7.12

$$$$

###

assayed-system: human kinase Mps-1 (Homo sapiens, UniProt P33981)
Construct: N-terminally GST-tagged human full length recombinant Mps-1 kinase
run-description: Mps-1 kinase assay (HTRF)
details: lowATP; mean; read-out: Mps1 lowATP mean IC50
pIC50: −log10 of the molar value.

>  <smi>
O=C(NC1CC1)c1ccc(-c2cnc3c(NCC4CC4)nc4ccccc4n23)cc1

>  <pIC50>
7.62

$$$$
>  <smi>
NS(=O)(=O)CCNc1nc2cc(F)c(F)cc2n2c(-c3ccc(C(=O)NC4CC4)c(Cl)c3)cnc12

>  <pIC50>
5.91

$$$$
>  <smi>
CC(C)CNc1nc2ccccc2n2c(-c3ccc(C(=O)N4CCCC4)cc3)cnc12

>  <pIC50>
5.44

$$$$
>  <smi>
N#Cc1ccc2c(c1)nc(NCCCO)c1ncc(-c3ccc(C(=O)NC4CC4)cc3)n12

>  <pIC50>
7.48

$$$$

###

assayed-system: human kinase Mps-1 (Homo sapiens, UniProt P33981)
Construct: N-terminally GST-tagged human full length recombinant Mps-1 kinase; purchased Invitrogen, Karslruhe, Germany PV4071
run-description: Mps-1 kinase assay (HTRF)
Type: biochemical
details: lowATP; mean; read-out: Mps1 lowATP mean IC50
pIC50: −log10 of the molar value.
Mark 0.0 for pIC50 values under 7, and 1.0 for everything at or above.

>  <compound>
COCCCNc1nc2ccc(F)cc2n2c(-c3ccc(C(=O)NC4CC4)c(Cl)c3)cnc12 [Example 2-83]

>  <classification>
0.0

$$$$
>  <compound>
CC(C)CCNc1nc2ccccc2n2c(-c3ccc(C(=O)NC4CC4)cc3)cnc12 [Example 2-3]

>  <classification>
1.0

$$$$
>  <compound>
CNC(=O)Nc1ccc(-c2cnc3c(NCc4cccnc4)nc4cc(C)c(C)cc4n23)cc1 [Example 2-171]

>  <classification>
0.0

$$$$
>  <compound>
CNC(=O)Nc1ccc(-c2cnc3c(NCc4ccccc4F)nc4ccc(F)cc4n23)cc1 [Example 2-62]

>  <classification>
0.0

$$$$

###

assayed-system: human kinase Mps-1 (Homo sapiens, UniProt P33981)
Construct: N-terminally GST-tagged human full length recombinant Mps-1 kinase
Sequence (P33981 1-857): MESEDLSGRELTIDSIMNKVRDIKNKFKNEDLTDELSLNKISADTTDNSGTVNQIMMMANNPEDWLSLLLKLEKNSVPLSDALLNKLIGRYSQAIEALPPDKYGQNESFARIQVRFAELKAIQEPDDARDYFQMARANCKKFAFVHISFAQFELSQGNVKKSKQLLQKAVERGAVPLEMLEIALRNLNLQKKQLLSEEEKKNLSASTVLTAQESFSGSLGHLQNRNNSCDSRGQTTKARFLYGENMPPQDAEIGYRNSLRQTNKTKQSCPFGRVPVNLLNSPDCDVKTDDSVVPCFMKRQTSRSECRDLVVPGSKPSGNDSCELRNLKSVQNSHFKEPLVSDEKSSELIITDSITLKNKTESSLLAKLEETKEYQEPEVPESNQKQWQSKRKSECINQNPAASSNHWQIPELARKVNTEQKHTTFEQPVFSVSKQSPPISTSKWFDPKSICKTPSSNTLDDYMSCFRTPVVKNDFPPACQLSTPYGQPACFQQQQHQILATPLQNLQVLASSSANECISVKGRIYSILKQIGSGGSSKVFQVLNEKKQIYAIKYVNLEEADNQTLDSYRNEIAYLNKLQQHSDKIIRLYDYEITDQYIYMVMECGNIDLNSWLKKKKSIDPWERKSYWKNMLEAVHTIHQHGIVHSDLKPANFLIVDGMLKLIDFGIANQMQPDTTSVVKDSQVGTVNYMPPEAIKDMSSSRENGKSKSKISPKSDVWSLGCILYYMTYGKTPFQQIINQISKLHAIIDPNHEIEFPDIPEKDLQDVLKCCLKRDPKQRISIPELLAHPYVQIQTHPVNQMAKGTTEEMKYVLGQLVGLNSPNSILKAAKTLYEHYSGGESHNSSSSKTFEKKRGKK
run-description: Mps-1 kinase assay (HTRF)
details: lowATP; mean; read-out: Mps1 lowATP mean IC50
pIC50: −log10 of the molar value.
The following molecules are shown together with reported pIC50 values.
value-type: pIC50

>  <molecule>
Cn1ccc(CNc2nc3cc(F)c(F)cc3n3c(-c4ccc(C(=O)NC5CC5)c(Cl)c4)cnc23)n1

>  <value-measured>
5.35

$$$$
>  <molecule>
CCNc1nc2ccc(F)cc2n2c(-c3ccc(C(=O)NC4CC4)cc3)cnc12

>  <value-measured>
7.06

$$$$
>  <molecule>
CC(C)CNc1nc2ccccc2n2c(-c3ccc(C(=O)NC4CC4)cc3)cnc12

>  <value-measured>
7.91

$$$$
>  <molecule>
N#Cc1ccc2c(c1)nc(NCC(O)CO)c1ncc(-c3ccc(C(=O)NC4CC4)cc3)n12 (stereo not shown)

>  <value-measured>
6.89

$$$$
>  <molecule>
CC(C)CNc1nc2cc(C#N)ccc2n2c(-c3ccc(C(=O)NC4CC4)c(Cl)c3)cnc12

>  <value-measured>
6.47

$$$$
>  <molecule>
Cc1cc2nc(NCCCN3CCCC3=O)c3ncc(-c4ccc(C(=O)NC5CC5)c(Cl)c4)n3c2cc1C

>  <value-measured>
6.35

$$$$
>  <molecule>
CC(C)CNc1nc2ccccc2n2c(-c3ccc4cc[nH]c4c3)cnc12

>  <value-measured>
5.70

$$$$
>  <molecule>
CC(C)CNc1nc2ccccc2n2c(-c3ccc(C(=O)Nc4cccc(NC(=O)c5cccnc5)c4)cc3)cnc12

>  <value-measured>
6.44

$$$$
>  <molecule>
COc1cc(C(=O)NC2CCN(C)CC2)ccc1Nc1nc2ccccc2n2c(-c3ccc(C(=O)NC4CC4)cc3)cnc12

>  <value-measured>
6.10

$$$$
>  <molecule>
CNC(=O)Nc1ccc(-c2cnc3c(NCCOC)nc4ccc(F)cc4n23)cc1

>  <value-measured>
5.14

$$$$
>  <molecule>
CNC(=O)Nc1ccc(-c2cnc3c(NCCS(N)(=O)=O)nc4cc(C)c(C)cc4n23)cc1

>  <value-measured>
5.65

$$$$
>  <molecule>
CNC(=O)Nc1ccc(-c2cnc3c(NCc4ccnn4C)nc4cc(C#N)ccc4n23)cc1

>  <value-measured>
5.94

$$$$
>  <molecule>
CCCCNc1nc2cc(F)c(F)cc2n2c(-c3ccc(C(=O)NC4CC4)cc3)cnc12

>  <value-measured>
7.55

$$$$
>  <molecule>
O=C(NC1CC1)c1ccc(-c2cnc3c(NCc4cccnc4)nc4ccc(F)cc4n23)cc1Cl

>  <value-measured>
5.85

$$$$
>  <molecule>
CC(C)CNc1nc2ccccc2n2c(-c3ccc(C(=O)NC4CC4C)cc3)cnc12 (stereo not shown)

>  <value-measured>
7.86

$$$$
>  <molecule>
CNC(=O)Nc1ccc(-c2cnc3c(NCCNC(C)=O)nc4cc(F)c(F)cc4n23)cc1

>  <value-measured>
4.90

$$$$
>  <molecule>
CNC(=O)Nc1ccc(-c2cnc3c(NCc4ccncc4)nc4cc(F)c(F)cc4n23)cc1

>  <value-measured>
5.45

$$$$
>  <molecule>
CC(=O)NCCNc1nc2cc(F)c(F)cc2n2c(-c3ccc(C(=O)NC4CC4)cc3)cnc12

>  <value-measured>
6.23

$$$$
>  <molecule>
O=C(NC1CC1)c1ccc(-c2cnc3c(NCCOc4ccccc4)nc4ccccc4n23)cc1

>  <value-measured>
6.35

$$$$
